System: 349418-098-R-PDC complex spheroid viability
Test: Anticancer human tumor 349418-098-R-PDC patient-derived lung adenocarcinoma cell line growth inhibition
Details: second compound 3.16 µM; first compound 0.316 µM; hits give low values
Exercise: for every item that follows, state its recorded viability, T/C.
Give bare numbers, in %.

Below are worked cases with known answers.
compound	viability, T/C, %
CC(C)c1c(-c2ccccc2)nc2c(C#N)c[nH]n2c1=O + NC1CCC(NC2CC2c2ccccc2)CC1	113
COc1cc(Nc2ncc3c(n2)-c2ccc(Cl)cc2C(c2c(F)cccc2OC)=NC3)ccc1C(=O)O + NC1CCC(NC2CC2c2ccccc2)CC1	31.9
CC(C)c1c(-c2ccccc2)nc2c(C#N)c[nH]n2c1=O + NC1CC1c1ccc(-c2cccc(O)c2)cc1	111

Working through the 2 compounds below one at a time, give viability, T/C for each.
1. O=C(C=Cn1cnc(-c2cc(C(F)(F)F)cc(C(F)(F)F)c2)n1)NNc1cnccn1 + NC1CCC(NC2CC2c2ccccc2)CC1
2. Nc1ncn(C2CC(O)C(CO)O2)c(=O)n1 (stereo not given) + NC1CC1c1ccc(-c2cccc(O)c2)cc1

3.12
30.6

----------
System: 349418-098-R-PDC complex spheroid viability
Assay: Anticancer human tumor 349418-098-R-PDC cell line growth inhibition;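 note: spheroids exposed to agents for seven days before readout; 100% = DMSO vehicle control wells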
Conditions: second compound 10 µM; first compound 0.949 µM; hits give low values
endpoint-name: viability, T/C (%)
Answers are plain numbers, in %.

Sample records with viability, T/C:
compound	unit-label	endpoint-value
COc1cc(C2c3cc4c(cc3C(OC3OC5COC(C)OC5C(O)C3O)C3COC(=O)C23)OCO4)cc(OC)c1O (stereo not given) + NC1CC1c1ccc(-c2cccc(O)c2)cc1	%	3.81
CCN(c1cc(-c2ccc(CN3CCOCC3)cc2)cc(C(=O)NCc2c(C)cc(C)[nH]c2=O)c1C)C1CCOCC1 + NC1CC1c1ccc(-c2cccc(O)c2)cc1	%	23.8
Nc1ccccc1NC(=O)c1ccc(CNC(=O)OCc2cccnc2)cc1 + NC1CC1c1ccc(-c2cccc(O)c2)cc1	%	5.86

For each entry beneath this line, provide reported viability, T/C.
1. O=C(C=Cc1cccc(S(=O)(=O)Nc2ccccc2)c1)NO + NC1CC1c1ccc(-c2cccc(O)c2)cc1
2. CCN(c1cc(-c2ccc(CN3CCOCC3)cc2)cc(C(=O)NCc2c(C)cc(C)[nH]c2=O)c1C)C1CCOCC1 + NC1CCC(NC2CC2c2ccccc2)CC1
3. NS(=O)(=O)OCC1CC(n2ccc3c(NC4CCc5ccccc54)ncnc32)CC1O (stereo not given) + NC1CCC(NC2CC2c2ccccc2)CC1
4. COc1cc(C2c3cc4c(cc3C(OC3OC5COC(C)OC5C(O)C3O)C3COC(=O)C23)OCO4)cc(OC)c1O (stereo not given) + NC1CCC(NC2CC2c2ccccc2)CC1
5. O=C(C=Cc1cccc(S(=O)(=O)Nc2ccccc2)c1)NO + NC1CCC(NC2CC2c2ccccc2)CC1
6. Nc1ccccc1NC(=O)c1ccc(CNC(=O)OCc2cccnc2)cc1 + NC1CCC(NC2CC2c2ccccc2)CC1
7. NS(=O)(=O)OCC1CC(n2ccc3c(NC4CCc5ccccc54)ncnc32)CC1O (stereo not given) + NC1CC1c1ccc(-c2cccc(O)c2)cc1

0.44
47.4
6.64
6.9
3.61
12.7
4.94

----------
Tested on: 349418-098-R-PDC complex spheroid viability
Assay: Anticancer human tumor 349418-098-R-PDC cell line growth inhibition; active = viability on the fitted dose curve at most 10% of control; inactive = the rest;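 note: spheroids exposed to agents for seven days before readout; 100% = DMSO vehicle control wells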
Conditions: second compound 0.1 µM; first compound 10 µM
Respond only with the outcome that fits, drawn from active, inactive

Worked examples follow.
compound	assay-system	group
CC1COCCN1c1cc(C2(S(C)(=N)=O)CC2)nc(-c2ccnc3[nH]ccc23)n1 (stereo not given) + NC1CC1c1ccc(-c2cccc(O)c2)cc1	349418-098-R-PDC complex spheroid viability	inactive
O=C(c1cc(Cc2n[nH]c(=O)c3ccccc23)ccc1F)N1CCN(C(=O)C2CC2)CC1 + NC1CC1c1ccc(-c2cccc(O)c2)cc1	349418-098-R-PDC complex spheroid viability	inactive
COc1ccc([C@@H](O)c2cc(-c3ncnc4cc(N5CCOCC5)ccc34)c(F)cc2Cl)nn1 + NC1CCC(NC2CC2c2ccccc2)CC1	349418-098-R-PDC complex spheroid viability	active
CC1(C)CCC(CN2CCN(c3ccc(C(=O)NS(=O)(=O)c4ccc(NCC5CCOCC5)c([N+](=O)[O-])c4)c(Oc4cnc5[nH]ccc5c4)c3)CC2)=C(c2ccc(Cl)cc2)C1 + NC1CC1c1ccc(-c2cccc(O)c2)cc1	349418-098-R-PDC complex spheroid viability	active
CC(C)c1c(-c2ccccc2)nc2c(C#N)c[nH]n2c1=O + NC1CCC(NC2CC2c2ccccc2)CC1	349418-098-R-PDC complex spheroid viability	inactive
CC1COCCN1c1cc(C2(S(C)(=N)=O)CC2)nc(-c2ccnc3[nH]ccc23)n1 (stereo not given) + NC1CCC(NC2CC2c2ccccc2)CC1	349418-098-R-PDC complex spheroid viability	inactive
O=C(c1cc(Cc2n[nH]c(=O)c3ccccc23)ccc1F)N1CCN(C(=O)C2CC2)CC1 + NC1CCC(NC2CC2c2ccccc2)CC1	349418-098-R-PDC complex spheroid viability	inactive
CC1(C)CCC(CN2CCN(c3ccc(C(=O)NS(=O)(=O)c4ccc(NCC5CCOCC5)c([N+](=O)[O-])c4)c(Oc4cnc5[nH]ccc5c4)c3)CC2)=C(c2ccc(Cl)cc2)C1 + NC1CCC(NC2CC2c2ccccc2)CC1	349418-098-R-PDC complex spheroid viability	inactive
CC(C)c1c(-c2ccccc2)nc2c(C#N)c[nH]n2c1=O + NC1CC1c1ccc(-c2cccc(O)c2)cc1	349418-098-R-PDC complex spheroid viability	inactive

Dear colleague, could you share the recorded outcome for COc1ccc([C@@H](O)c2cc(-c3ncnc4cc(N5CCOCC5)ccc34)c(F)cc2Cl)nn1 + NC1CC1c1ccc(-c2cccc(O)c2)cc1 when you have a moment?
active

----------
For each of the molecules below, state its viability, T/C.
Tested on: 349418-098-R-PDC complex spheroid viability
Test: Anticancer human tumor 349418-098-R-PDC cell line growth inhibition;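 note: spheroids exposed to agents for seven days before readout; 100% = DMSO vehicle control wells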
Conditions: second compound 10 µM; first compound 0.0949 µM; hits give low values
One number for each entry, in %.

Recorded results for 3 molecules are shown here.
molecule	viability, T/C [%]
CCN(c1cc(-c2ccc(CN3CCOCC3)cc2)cc(C(=O)NCc2c(C)cc(C)[nH]c2=O)c1C)C1CCOCC1 + NC1CCC(NC2CC2c2ccccc2)CC1	64.9
CCc1c2c(nc3ccc(O)cc13)-c1cc3c(c(=O)n1C2)COC(=O)[C@]3(O)CC + NC1CC1c1ccc(-c2cccc(O)c2)cc1	1.59
Nc1ccccc1NC(=O)c1ccc(CNC(=O)OCc2cccnc2)cc1 + NC1CCC(NC2CC2c2ccccc2)CC1	75.5

// for each molecule in input: emit viability, T/C
1. Nc1ccn(C2OC(CO)C(O)C2(F)F)c(=O)n1 (stereo unspecified) + NC1CC1c1ccc(-c2cccc(O)c2)cc1
2. Nc1ccccc1NC(=O)c1ccc(CNC(=O)OCc2cccnc2)cc1 + NC1CC1c1ccc(-c2cccc(O)c2)cc1
3. Nc1ccn(C2OC(CO)C(O)C2(F)F)c(=O)n1 (stereo unspecified) + NC1CCC(NC2CC2c2ccccc2)CC1
4. NS(=O)(=O)OCC1CC(n2ccc3c(NC4CCc5ccccc54)ncnc32)CC1O (stereo unspecified) + NC1CCC(NC2CC2c2ccccc2)CC1
5. Nc1ncn(C2CC(O)C(CO)S2)c(=O)n1 (stereo unspecified) + NC1CCC(NC2CC2c2ccccc2)CC1
6. COc1cc(C2c3cc4c(cc3C(OC3OC5COC(C)OC5C(O)C3O)C3COC(=O)C23)OCO4)cc(OC)c1O (stereo unspecified) + NC1CC1c1ccc(-c2cccc(O)c2)cc1
7. O=C(C=Cc1cccc(S(=O)(=O)Nc2ccccc2)c1)NO + NC1CC1c1ccc(-c2cccc(O)c2)cc1

4.65
64.3
4.86
33.6
16
14.7
14.6

Each of the following entries comes with a recorded value; kindly state viability, T/C for each.
1. O=C(C=Cc1cccc(S(=O)(=O)Nc2ccccc2)c1)NO + NC1CCC(NC2CC2c2ccccc2)CC1
2. COc1cc(C2c3cc4c(cc3C(OC3OC5COC(C)OC5C(O)C3O)C3COC(=O)C23)OCO4)cc(OC)c1O (stereo unspecified) + NC1CCC(NC2CC2c2ccccc2)CC1
3. CCN(c1cc(-c2ccc(CN3CCOCC3)cc2)cc(C(=O)NCc2c(C)cc(C)[nH]c2=O)c1C)C1CCOCC1 + NC1CC1c1ccc(-c2cccc(O)c2)cc1
4. Nc1ncn(C2CC(O)C(CO)S2)c(=O)n1 (stereo unspecified) + NC1CC1c1ccc(-c2cccc(O)c2)cc1
5. NS(=O)(=O)OCC1CC(n2ccc3c(NC4CCc5ccccc54)ncnc32)CC1O (stereo unspecified) + NC1CC1c1ccc(-c2cccc(O)c2)cc1

44.3
37.2
107
14.5
28.1

Which viability, T/C is listed for CCc1c2c(nc3ccc(O)cc13)-c1cc3c(c(=O)n1C2)COC(=O)[C@]3(O)CC + NC1CCC(NC2CC2c2ccccc2)CC1 ?
1.21
